From: patent US20260242735A1

Tested target: human CD33 F21S (human, UniProt P20138 18-364)
Sequence (P20138 18-364 F21S limits assumed): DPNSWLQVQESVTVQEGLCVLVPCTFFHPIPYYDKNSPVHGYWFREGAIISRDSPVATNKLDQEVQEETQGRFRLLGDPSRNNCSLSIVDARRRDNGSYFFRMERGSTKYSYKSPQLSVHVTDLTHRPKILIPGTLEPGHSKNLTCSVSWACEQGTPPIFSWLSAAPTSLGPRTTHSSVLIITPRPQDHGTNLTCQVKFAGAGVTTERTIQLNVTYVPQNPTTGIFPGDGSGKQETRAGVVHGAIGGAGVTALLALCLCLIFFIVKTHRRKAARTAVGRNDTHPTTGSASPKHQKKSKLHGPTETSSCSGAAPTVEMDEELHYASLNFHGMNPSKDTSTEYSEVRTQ
Measurement notes: flow cytometry, mutant on cells, IgG
Outcome measure: Mean % WT Binding (% WT binding)
One number for each entry, in % WT binding.

Hey, quick one: what's Mean % WT Binding for each of these?
1. Refmab #2 (antibody, human IgG1, V domains shown, Tested in IgG format; human IgG1 Fc silent (PG-LALA)) VH: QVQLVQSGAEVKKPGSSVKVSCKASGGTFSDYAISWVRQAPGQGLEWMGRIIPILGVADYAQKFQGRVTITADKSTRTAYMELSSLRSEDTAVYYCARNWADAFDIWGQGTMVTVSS VL: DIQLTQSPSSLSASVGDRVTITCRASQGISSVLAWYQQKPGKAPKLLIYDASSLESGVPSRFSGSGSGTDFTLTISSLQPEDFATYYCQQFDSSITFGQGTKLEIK
2. Refmab #1 (antibody, human IgG1, V domains shown, Tested in IgG format; human IgG1 (Absolute Antibody hP67.6, Cat. No. Ab00283-10.0); also called hP67.6) VH: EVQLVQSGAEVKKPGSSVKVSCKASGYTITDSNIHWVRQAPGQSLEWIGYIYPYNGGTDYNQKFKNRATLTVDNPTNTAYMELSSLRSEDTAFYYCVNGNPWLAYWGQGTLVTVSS VL: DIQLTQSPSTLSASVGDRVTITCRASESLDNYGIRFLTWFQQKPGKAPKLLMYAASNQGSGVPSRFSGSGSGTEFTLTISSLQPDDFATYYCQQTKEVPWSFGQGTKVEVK
3. Refmab #3 (antibody, human IgG1, V domains shown, Tested in IgG format; human IgG1 Fc silent (PG-LALA)) VH: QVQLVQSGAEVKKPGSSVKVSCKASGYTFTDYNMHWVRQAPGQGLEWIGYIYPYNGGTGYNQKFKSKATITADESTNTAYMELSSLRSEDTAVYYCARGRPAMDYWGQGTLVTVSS VL: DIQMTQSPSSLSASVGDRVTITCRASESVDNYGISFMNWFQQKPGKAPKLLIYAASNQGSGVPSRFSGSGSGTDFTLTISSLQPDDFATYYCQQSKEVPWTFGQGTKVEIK
4. Refmab #4 (antibody, human IgG1, V domains shown, Tested in IgG format; human IgG1 Fc silent (PG-LALA)) VH: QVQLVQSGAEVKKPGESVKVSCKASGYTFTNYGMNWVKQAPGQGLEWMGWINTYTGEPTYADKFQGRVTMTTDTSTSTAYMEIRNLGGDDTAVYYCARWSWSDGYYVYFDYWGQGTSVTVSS VL: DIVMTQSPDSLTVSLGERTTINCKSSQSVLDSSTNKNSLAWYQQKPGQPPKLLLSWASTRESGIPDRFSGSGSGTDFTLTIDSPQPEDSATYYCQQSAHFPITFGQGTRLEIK

115
6.4
3.4
118
